The origin of these recorded values is ChEMBL document CHEMBL3885881.

Organism: Rattus norvegicus
experimentalDetails: DrugMatrix - Regimen: Daily Repeat
Format: toxicity, organism-based, Sprague-Dawley
Design: regimen Daily Repeat, gender Male, age 6-8 weeks
measurementConditions: in vivo, po, 0 mg/kg, 72 h, tissue Plasma, route oral GAVAGE, dose level Control, time 3 day, […]
measurementName: GLUCOSE (mg/dL)
Please reply with the bare figure in mg/dL and do not write the unit itself.

Prompt: Give its GLUCOSE value. Item: CC[C@H](C)C(=O)O[C@H]1C[C@@H](C)C=C2C=C[C@H](C)[C@H](CC[C@@H]3C[C@@H](O)CC(=O)O3)[C@H]21 [LOVASTATIN]
Completion: 198.33

Prompt: How about CC(C)Cc1ccc(CC(=O)O)cc1 [IBUFENAC] ?
Completion: 175.33

Prompt: How about OCCN1CCN(CCCN2c3ccccc3Sc3ccc(C(F)(F)F)cc32)CC1 [FLUPHENAZINE] ?
Completion: 157.17

Prompt: How about NC[C@@H]1O[C@H](O[C@H]2[C@@H](O)[C@H](O[C@@H]3[C@@H](O)[C@H](N)C[C@H](N)[C@H]3O[C@H]3O[C@H](CN)[C@@H](O)[C@H](O)[C@H]3N)O[C@@H]2CO)[C@H](N)[C@@H](O)[C@@H]1O [FRAMYCETIN] ?
Completion: 165.5

Prompt: How about CCn1cc(C(=O)O)c(=O)c2cc(F)c(N3CCNCC3)nc21 [ENOXACIN] ?
Completion: 160.67

Prompt: How about COc1ncnc(NS(=O)(=O)c2ccc(N)cc2)c1OC [SULFADOXINE] ?
Completion: 164.5

Prompt: How about CC(=O)Nc1nnc(S(N)(=O)=O)s1 [ACETAZOLAMIDE] ?
Completion: 164.5

Prompt: How about C#C[C@]1(O)CC[C@H]2[C@@H]3CCc4cc(O)ccc4[C@H]3CC[C@@]21C [ETHINYL ESTRADIOL] ?
Completion: 160.67

Prompt: How about CC(CCc1ccc(O)cc1)NCCc1ccc(O)c(O)c1 (stereo not given) [DOBUTAMINE] ?
Completion: 184

Prompt: How about CC[C@H](C)C(=O)O[C@H]1C[C@H](O)C=C2C=C[C@H](C)[C@H](CC[C@@H](O)C[C@@H](O)CC(=O)O)[C@H]21 [PRAVASTATIN] ?
Completion: 170.5

###

Assign BLOOD UREA NITROGEN to each entry below.
Species on record: Rattus norvegicus
experimentalDetails: DrugMatrix - Regimen: Daily Repeat
Format: toxicity, organism-based, Sprague-Dawley
Design: regimen Daily Repeat, gender Male, age 6-8 weeks
measurementConditions: in vivo, po, 1500 mg/kg, 120 h, tissue Plasma, route oral GAVAGE, dose level High, time 5 day, vehicle .5 % CMC
Please reply with the bare figure in mg/dL and do not write the unit itself.

Prompt: Give its BLOOD UREA NITROGEN value. Item: O=c1cc(-c2ccccc2)oc2ccc3ccccc3c12 [BETA-NAPHTHOFLAVONE]
Completion: 12.67

Prompt: How about Nc1nc2c(c(=O)[nH]1)N(C=O)C(CNc1ccc(C(=O)N[C@@H](CCC(=O)O)C(=O)O)cc1)CN2 (stereo not given in full) [LEUCOVORIN] ?
Completion: 16.33

Prompt: How about CC(C)(Sc1cc(C(C)(C)C)c(O)c(C(C)(C)C)c1)Sc1cc(C(C)(C)C)c(O)c(C(C)(C)C)c1 [PROBUCOL] ?
Completion: 15.33

Prompt: How about C[C@@H](O)[C@H]1C(=O)N2C(C(=O)O)=C(S[C@@H]3CN[C@H](C(=O)N(C)C)C3)[C@H](C)[C@H]12 [MEROPENEM] ?
Completion: 16.67

Prompt: How about CCOC(=O)[C@H](CCc1ccccc1)N[C@@H](C)C(=O)N1CCC[C@H]1C(=O)O ?
Completion: 41

###

Species: Rattus norvegicus
experimentalDetails: DrugMatrix - Regimen: Daily Repeat
Assay type: toxicity, organism-based, Sprague-Dawley
Set-up: regimen Daily Repeat, gender Male, age 6-8 weeks
measurementConditions: in vivo, po, 0 mg/kg, 72 h, tissue Plasma, route oral GAVAGE, dose level Control, time 3 day, […]
Assign CARBON DIOXIDE to each entry below.
Please reply with the bare figure in mmol/L and do not write the unit itself.

Prompt: Give its CARBON DIOXIDE value. Item: CC(C)Cc1ccc(CC(=O)O)cc1
Completion: 24.33

Prompt: How about C#C[C@]1(O)CC[C@H]2[C@@H]3CCc4cc(O)ccc4[C@H]3CC[C@@]21C ?
Completion: 25.5

Prompt: How about CN(CCOc1ccc(CC2SC(=O)NC2=O)cc1)c1ccccn1 (stereo not drawn) ?
Completion: 30

###

Assign ABSOLUTE BASOPHIL to each entry below.
Organism: Rattus norvegicus
experimentalDetails: DrugMatrix - Regimen: Daily Repeat
Format: toxicity, organism-based, Sprague-Dawley
Parameters: regimen Daily Repeat, gender Male, age 6-8 weeks
measurementConditions: in vivo, po, 0 mg/kg, […], tissue Blood, route oral GAVAGE, dose level Control, time 14 day
Respond with a number, then the unit of measure.

Prompt: Give its ABSOLUTE BASOPHIL value. Item: CC[C@H](C)C(=O)O[C@H]1C[C@H](O)C=C2C=C[C@H](C)[C@H](CC[C@@H](O)C[C@@H](O)CC(=O)O)[C@H]21
Completion: 100 cells/µL

Prompt: How about CC(CCc1ccc(O)cc1)NCCc1ccc(O)c(O)c1 (configuration not stated) ?
Completion: 73.3 cells/µL

###

Organism: Rattus norvegicus
experimentalDetails: DrugMatrix - Regimen: Daily Repeat
Assay type: toxicity, organism-based, Sprague-Dawley
Design: regimen Daily Repeat, gender Male, age 6-8 weeks
measurementConditions: in vivo, po, 15 mg/kg, […], tissue Blood, route oral GAVAGE, dose level High, time 14 day
measurementName: ABSOLUTE BASOPHIL (cells/µL)
Please reply with the bare figure in cells/µL and do not write the unit itself.

Prompt: Give its ABSOLUTE BASOPHIL value. Item: CC(CCc1ccc(O)cc1)NCCc1ccc(O)c(O)c1 (stereo unspecified) [DOBUTAMINE]
Completion: 52

###

Species: Rattus norvegicus
experimentalDetails: DrugMatrix - Regimen: Daily Repeat
Type: toxicity, organism-based, Sprague-Dawley
Set-up: regimen Daily Repeat, gender Male, age 6-8 weeks
measurementConditions: in vivo, po, 0 mg/kg, 120 h, tissue Plasma, route oral GAVAGE, dose level Control, time 5 day, vehicle 100 % WATER
Assign ALBUMIN to each entry below.
Please reply with the bare figure in G/DL and do not write the unit itself.

Prompt: Give its ALBUMIN value. Item: Cc1c(N(C)CS(=O)(=O)[O-])c(=O)n(-c2ccccc2)n1C.[Na+] [DIPYRONE SODIUM]
Completion: 4.33

Prompt: How about O=C(O)c1cccnc1 ?
Completion: 4.08

Prompt: How about CC(C)(C)NC[C@H](O)COc1nsnc1N1CCOCC1 ?
Completion: 4.07

###

Assign PLATELET COUNT to each entry below.
Species on record: Rattus norvegicus
experimentalDetails: DrugMatrix - Regimen: Daily Repeat
Format: toxicity, organism-based, Sprague-Dawley
Design: regimen Daily Repeat, gender Male, age 6-8 weeks
measurementConditions: in vivo, po, 1500 mg/kg, 120 h, tissue Blood, route oral GAVAGE, dose level High, time 5 day, vehicle .5 % CMC

Prompt: Give its PLATELET COUNT value. Item: Nc1nc2c(c(=O)[nH]1)N(C=O)C(CNc1ccc(C(=O)N[C@@H](CCC(=O)O)C(=O)O)cc1)CN2 (stereo not given in full) [LEUCOVORIN]
Completion: 1112.33 x10E3/uL

Prompt: How about O=c1cc(-c2ccccc2)oc2ccc3ccccc3c12 [BETA-NAPHTHOFLAVONE] ?
Completion: 1352 x10E3/uL

Prompt: How about CC(C)(Sc1cc(C(C)(C)C)c(O)c(C(C)(C)C)c1)Sc1cc(C(C)(C)C)c(O)c(C(C)(C)C)c1 [PROBUCOL] ?
Completion: 1307 x10E3/uL

Prompt: How about CCOC(=O)[C@H](CCc1ccccc1)N[C@@H](C)C(=O)N1CCC[C@H]1C(=O)O ?
Completion: 1399.33 x10E3/uL

Prompt: How about C[C@@H](O)[C@H]1C(=O)N2C(C(=O)O)=C(S[C@@H]3CN[C@H](C(=O)N(C)C)C3)[C@H](C)[C@H]12 [MEROPENEM] ?
Completion: 1178 x10E3/uL

###

Species on record: Rattus norvegicus
experimentalDetails: DrugMatrix - Regimen: Daily Repeat
Assay type: toxicity, organism-based, Sprague-Dawley
Set-up: regimen Daily Repeat, gender Male, age 6-8 weeks
measurementConditions: in vivo, po, 1500 mg/kg, 72 h, tissue Blood, route oral GAVAGE, dose level High, time 3 day, vehicle .5 % CMC
measurementName: MEAN CORPUSCULAR HEMOGLOBIN CONCENTRATION (G/DL)
Please reply with the bare figure in G/DL and do not write the unit itself.

Prompt: Give its MEAN CORPUSCULAR HEMOGLOBIN CONCENTRATION value. Item: C[C@@H](O)[C@H]1C(=O)N2C(C(=O)O)=C(S[C@@H]3CN[C@H](C(=O)N(C)C)C3)[C@H](C)[C@H]12
Completion: 38.2

Prompt: How about CC(C)(Sc1cc(C(C)(C)C)c(O)c(C(C)(C)C)c1)Sc1cc(C(C)(C)C)c(O)c(C(C)(C)C)c1 ?
Completion: 38.47

Prompt: How about Nc1nc2c(c(=O)[nH]1)N(C=O)C(CNc1ccc(C(=O)N[C@@H](CCC(=O)O)C(=O)O)cc1)CN2 (stereo not given in full) ?
Completion: 39.33

Prompt: How about O=c1cc(-c2ccccc2)oc2ccc3ccccc3c12 ?
Completion: 31.47

Prompt: How about CCOC(=O)[C@H](CCc1ccccc1)N[C@@H](C)C(=O)N1CCC[C@H]1C(=O)O ?
Completion: 39.7
